SUBJECT OF TEST: Cannabinoid receptor 2 (Homo sapiens, UniProt P34972)
Sequence (P34972 whole entry): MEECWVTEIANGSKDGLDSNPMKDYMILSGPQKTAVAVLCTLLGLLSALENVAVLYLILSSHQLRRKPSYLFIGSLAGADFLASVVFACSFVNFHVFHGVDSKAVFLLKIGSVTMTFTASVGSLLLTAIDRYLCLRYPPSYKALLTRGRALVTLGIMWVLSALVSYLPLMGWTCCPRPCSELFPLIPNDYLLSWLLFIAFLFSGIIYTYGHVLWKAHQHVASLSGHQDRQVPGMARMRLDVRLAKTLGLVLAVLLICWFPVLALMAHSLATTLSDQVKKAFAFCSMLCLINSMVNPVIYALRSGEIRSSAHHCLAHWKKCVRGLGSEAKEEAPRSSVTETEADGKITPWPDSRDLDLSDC
EXPERIMENT NOTES: Antagonist activity at CB2 receptor (unknown origin) stably expressed in CHO cells co-expressing co-expressing Ga15/16 assessed as calcium current after 45 mins by fluo-4 AM assay
Type: functional, cell-based
OUTCOME MEASURE: IC50 (µM)
Return type: number; implicit unit µM.

Q: Could you please provide reported IC50 for `COc1ccc(-n2c(-c3ccc(Cl)cc3)nn(C(=O)NC3CCCCC3)c2=O)cc1` ? Thanks!
A: 1.51

Q: Respond only with IC50 recorded for `Cc1ccc(Cn2c(-c3ccc(C)cc3)nn(C(=O)NC3CCCCC3)c2=O)cc1`
A: 5.03

Q: Input `Cc1ccc(Cn2c(-c3ccc(Cl)cc3)nn(C(=O)NC3CCCCC3)c2=O)cc1` , output reported IC50.
A: 1.93

Q: Give the value of IC50 reported for the following: `COc1ccc(-c2nn(C(=O)NC3CCCCC3)c(=O)n2-c2ccc(Cl)cc2)cc1`
A: 6.08

Q: Return reported IC50. Input compound: `COc1ccc(-c2nn(C(=O)NC3CCCCC3)c(=O)n2-c2ccc(C)cc2)cc1`
A: 4.09

Q: Please indicate IC50 recorded for `COc1ccc(-n2c(-c3ccc(Cl)cc3)nn(C(=O)Nc3ccc(C)cc3)c2=O)cc1`
A: 20
